target-of-assay: T1, human transferrin receptor 1 (human, UniProt P02786 89-760, limits assumed)
T1 construct: also called hTfR1; huTfR1
T1 sequence (P02786 89-760 limits assumed): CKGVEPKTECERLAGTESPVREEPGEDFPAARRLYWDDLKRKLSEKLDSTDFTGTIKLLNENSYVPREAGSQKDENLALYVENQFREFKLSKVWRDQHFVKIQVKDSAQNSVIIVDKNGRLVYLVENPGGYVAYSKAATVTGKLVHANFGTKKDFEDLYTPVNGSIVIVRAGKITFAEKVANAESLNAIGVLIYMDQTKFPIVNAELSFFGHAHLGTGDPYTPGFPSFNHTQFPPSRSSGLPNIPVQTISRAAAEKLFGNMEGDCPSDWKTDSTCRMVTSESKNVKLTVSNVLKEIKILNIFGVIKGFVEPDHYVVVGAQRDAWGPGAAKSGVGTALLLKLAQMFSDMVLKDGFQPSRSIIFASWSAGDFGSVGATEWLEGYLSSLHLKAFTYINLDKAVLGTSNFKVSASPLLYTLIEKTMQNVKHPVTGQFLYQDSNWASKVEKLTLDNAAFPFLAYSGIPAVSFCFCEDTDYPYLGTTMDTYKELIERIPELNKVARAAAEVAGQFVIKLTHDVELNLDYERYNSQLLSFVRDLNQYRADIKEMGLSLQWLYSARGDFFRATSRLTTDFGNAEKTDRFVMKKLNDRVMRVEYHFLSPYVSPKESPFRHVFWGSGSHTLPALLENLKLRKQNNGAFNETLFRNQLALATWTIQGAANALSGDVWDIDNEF
assay-name: Carterra LSA SPR array, IgG captured on anti-IgG lawn, hTfR1 as analyte, 25 C, 1:1 Langmuir fit
Hi there, I'd appreciate the recorded pKd for every entry that follows.
Numbers only, as −log10 of the molar value.

Field: example entries. Status: answers known.
5-H12 (antibody, V domains shown, Tested as a mouse monoclonal IgG) VH: QIQLQQSGPELVRPGASVKISCKASGYSFTDYCINWVNQRPGQGLEWIGWIYPGSGNTRYSERFKGKATLTVDTSSNTAYMQLSSLTSEDSAVYFCAREDYYPYHGMDYWGQGTSVTVSS VL: DIVLTQSPTSLAVSLGQRATISCRASESVDGYDNSFMHWYQQKPGQPPKLLIFRASNLESGIPARFSGSGSRTDFTLTINPVEAADVATYYCQQSSEDPWTFGGGTKLEIK = 6.68
3-M12 (antibody, V domains shown, Tested as a mouse monoclonal IgG) VH: DVQLQESGPGLVKPSQSLSLTCSVTGYSITSGYYWNWIRQFPGNKLEWMGYITFDGANNYNPSLKNRISITRDTSKNQFFLKLTSVTTEDTATYYCTRSSYDYDVLDYWGQGTTLTVSS VL: DIQMTQTTSSLSASLGDRVTISCRASQDISNFLNWYQQRPDGTVKLLIYYTSRLHSGVPSRFSGSGSGTDFSLTVSNLEQEDIATYFCQQGHTLPYTFGGGTKLEIK = 9.11

Moving on to the next binder.
Indicate its recorded pKd; the binder in question is 10-H2 (antibody, V domains shown, Tested as a mouse monoclonal IgG; also called 10-H02) VH: EVQLVESGGDLVKPGGSLKLSCAASGFTFSDYGMHWVRQGPEKGLEWVAYINSGSSTIYYADTVKGRFTISRDNAKNTLFLQMTSLRSEDTAMYYCARPGDYDNYAMDYWGQGTSVTVSS VL: DIVMTQSHKFLSTSVGDRVSITCKASQDVSVAVAWYQQKPGQSPKLLIYWAYTRHTGVPDRFTGSGSGTEYTLTISSVQAEDLALYYCQQHYNTPPWTFGGGTKLEIK
8.57

Reference source: patent US20230144436A1
